Test system: SNB-75 CNS
Assay: NCI-60 one-dose screen, 48 h
Details: 10 µM unless noted
Compounds without any hit were thinned out: in the full panel of roughly 83,000, 20% have a hit. The source made the active and inactive calls. How the source made its calls: active means growth percent below 10; inactive means the rest.
Respond with a class label; see active, inactive

Ask: Identify the outcome logged in this assay for the compound shown: O=C(Nc1ccc(Br)c(Cl)c1)c1cc(F)ccc1O
Reply: active

Ask: Identify the outcome logged in this assay for the compound shown: COc1ccc(-c2nc3sccn3c2-c2ccnc(NCCCNS(=O)(=O)c3ccc(C)cc3)n2)cc1
Reply: inactive

Ask: Identify the outcome logged in this assay for the compound shown: COc1cc(-n2nc(C(=O)Nc3ccc(C(=O)O)cc3)nc2-c2ccccc2)cc(OC)c1OC
Reply: inactive

Ask: Identify the outcome logged in this assay for the compound shown: CC(=O)N1Cc2ccccc2C(C)Cc2cc(Cl)ccc21 (configuration not stated)
Reply: inactive

Ask: Identify the outcome logged in this assay for the compound shown: O=S(=O)(c1ccccc1)n1ccc(-c2ccc3c(c2)CCO3)n1
Reply: inactive

Ask: Identify the outcome logged in this assay for the compound shown: O=C(CCCn1c(=O)c2sc3ccccc3c2n2nnc(-c3ccccc3)c12)NCCc1cnc[nH]1
Reply: inactive

Ask: Identify the outcome logged in this assay for the compound shown: COc1ccc(/C=C/c2nc(N3CCOCC3)c3nc(Cl)c(Cl)cc3n2)cc1OC
Reply: inactive

Ask: Identify the outcome logged in this assay for the compound shown: COc1cc2c3c(c(=O)oc2cc1OS(=O)(=O)c1ccc(C(F)(F)F)cc1)CCCCC3
Reply: active

Ask: Identify the outcome logged in this assay for the compound shown: CC(C)C(C(=O)CCN(C)C)c1ccc(Cl)cc1 (configuration not stated)
Reply: inactive

Ask: Identify the outcome logged in this assay for the compound shown: CCOP(=O)(CCN1CCN(CCCCCOc2cc3c(cc2OC)C(=O)N2CCC[C@H]2C=N3)CC1)OCC
Reply: inactive

Ask: Identify the outcome logged in this assay for the compound shown: C=C1C(=O)O[C@H]2[C@H]1CC/C(COC(=O)NCc1cc(OC)cc(OC)c1)=C\CC[C@@]1(C)O[C@@H]21
Reply: inactive

Ask: Identify the outcome logged in this assay for the compound shown: O=C(CCC(=O)OC1CCCC1)OC1CCCC1
Reply: inactive

Ask: Identify the outcome logged in this assay for the compound shown: CCCn1c(=S)sc2c(Cl)nc(C)nc21
Reply: active

Ask: Identify the outcome logged in this assay for the compound shown: COc1cc(Cn2c(-c3nonc3N)nc3ccccc32)ccc1C
Reply: active

Ask: Identify the outcome logged in this assay for the compound shown: COc1ccc(/C=C2\C(=O)N(C(=O)c3csc(NC(C)=O)n3)N=C2C)cc1
Reply: inactive

Ask: Identify the outcome logged in this assay for the compound shown: CN(C)c1ccc(/C=C\N=Nc2ccc(Br)cc2)cc1
Reply: inactive

Ask: Identify the outcome logged in this assay for the compound shown: CCOc1ccc(/C=C/C=N/NC(N)=S)cc1
Reply: inactive
